Just for reference, patent US20210196796A1 is where these values come from.

- assayed-system: T1, orthogonal hCD122 receptor (hoRb), hCD122 with H133D and Y134F (human, UniProt P14784 27-550)
- T1 sequence: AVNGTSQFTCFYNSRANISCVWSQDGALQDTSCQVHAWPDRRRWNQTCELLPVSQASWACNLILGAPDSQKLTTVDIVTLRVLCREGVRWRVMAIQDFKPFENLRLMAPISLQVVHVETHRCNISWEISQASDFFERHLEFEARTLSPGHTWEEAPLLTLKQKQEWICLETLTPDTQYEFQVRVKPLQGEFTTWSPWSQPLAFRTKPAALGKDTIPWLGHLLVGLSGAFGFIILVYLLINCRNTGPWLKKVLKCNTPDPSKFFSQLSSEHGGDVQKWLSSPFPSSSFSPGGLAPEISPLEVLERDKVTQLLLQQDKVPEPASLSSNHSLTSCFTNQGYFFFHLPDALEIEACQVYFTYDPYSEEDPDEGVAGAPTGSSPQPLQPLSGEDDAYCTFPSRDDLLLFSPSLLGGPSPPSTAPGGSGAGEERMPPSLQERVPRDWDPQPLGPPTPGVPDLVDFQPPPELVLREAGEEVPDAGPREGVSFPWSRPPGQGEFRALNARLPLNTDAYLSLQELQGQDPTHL
- assay-info: cell-based or functional assay
property-label: Relative Proliferation Fold Change 3F8 1:2 (fold)

[[record]]
binder = "ΔH16, S_VLKA (ligand) APTSSSTKKTQLQLSLLVLLKAILNGINNYKNPKLTRMLTFKFYMPKKATELKHLQCLEEELKPLEEVLNLAQSKNFHLRPRDLISNINVIVLELKGSETTFMCEYADETATIVEFLNRWITFCQSIISTLT"
scale_unit = "fold"
readout_number = 3.49

[[record]]
binder = "SQVLKW (ligand) APTSSSTKKTQLQLSQLLVLLKWILNGINNYKNPKLTRMLTFKFYMPKKATELKHLQCLEEELKPLEEVLNLAQSKNFHLRPRDLISNINVIVLELKGSETTFMCEYADETATIVEFLNRWITFCQSIISTLT"
scale_unit = "fold"
readout_number = 36

[[record]]
binder = "Q126R, SQVLKA (ligand) APTSSSTKKTQLQLSQLLVLLKAILNGINNYKNPKLTRMLTFKFYMPKKATELKHLQCLEEELKPLEEVLNLAQSKNFHLRPRDLISNINVIVLELKGSETTFMCEYADETATIVEFLNRWITFCRSIISTLT"
scale_unit = "fold"
readout_number = 0.49

[[record]]
binder = "ΔD20, SQV_KA (ligand) APTSSSTKKTQLQLSQLLVLKAILNGINNYKNPKLTRMLTFKFYMPKKATELKHLQCLEEELKPLEEVLNLAQSKNFHLRPRDLISNINVIVLELKGSETTFMCEYADETATIVEFLNRWITFCQSIISTLT"
scale_unit = "fold"
readout_number = 1.51

[[record]]
binder = "L14W, SQVLKA (ligand) APTSSSTKKTQLQWSQLLVLLKAILNGINNYKNPKLTRMLTFKFYMPKKATELKHLQCLEEELKPLEEVLNLAQSKNFHLRPRDLISNINVIVLELKGSETTFMCEYADETATIVEFLNRWITFCQSIISTLT"
scale_unit = "fold"
readout_number = 66.2


[P] N88E, SQVLKA (ligand) APTSSSTKKTQLQLSQLLVLLKAILNGINNYKNPKLTRMLTFKFYMPKKATELKHLQCLEEELKPLEEVLNLAQSKNFHLRPRDLISEINVIVLELKGSETTFMCEYADETATIVEFLNRWITFCQSIISTLT
[Q] SQVLKV (ligand) APTSSSTKKTQLQLSQLLVLLKVILNGINNYKNPKLTRMLTFKFYMPKKATELKHLQCLEEELKPLEEVLNLAQSKNFHLRPRDLISNINVIVLELKGSETTFMCEYADETATIVEFLNRWITFCQSIISTLT
Q: Sort P and Q by Relative Proliferation Fold Change 3F8 1:2 descending and give the first. Provide the label of your selected option as the answer.
Ans: Q
